# System: emLYPLA2
# EXPERIMENTAL_PROTOCOL: LYPLA1 and LYPLA2 inhibitors, biochemical, gel-based ABPP, fluorescence, recombinant and endogenous enzyme (AID 493105)
# SETUP_CONDITIONS: fluorescent probe labeling, membrane fraction, at 20 µM, active compounds read high
Could you label it y if measured inhibition is 40% or higher, and n otherwise?

*Q* In plain terms: is recorded inhibition at least 40% for COc1ccc(-n2nc(C(=O)NCC(=O)N3CCN(Cc4ccc5c(c4)OCO5)CC3)c3ccccc3c2=O)cc1OC ?
*A* y

*Q* Check Cc1cc(OCc2cc(C(=O)N3CCC(Oc4cccnc4)CC3)no2)cc(C)c1Cl too.
*A* n

*Q* Check O=C(O)c1ccc2c(c1)C(=O)N(CCCCCCCN1C(=O)c3ccc(C(=O)O)cc3C1=O)C2=O too.
*A* n

*Q* Check COc1ccccc1-c1csc(-n2ncc(C#N)c2N)n1 too.
*A* n

*Q* Check COc1cc([C@H]2Oc3cc([C@H]4Oc5cc(O)cc(O)c5C(=O)[C@@H]4O)ccc3O[C@@H]2CO)ccc1O too.
*A* y

*Q* Check CC1CN(Cc2cc(=O)oc3cc(O)c(Cl)cc23)CC(C)O1 (configuration not stated) too.
*A* n

###

# Tested on: rhLYPLA2
# EXPERIMENTAL_PROTOCOL: LYPLA1 and LYPLA2 inhibitors, biochemical, gel-based ABPP, fluorescence, recombinant and endogenous enzyme (AID 493105)
# SETUP_CONDITIONS: fluorescent probe labeling, membrane fraction, at 20 µM, active compounds read high
Field: inhibition. Provide a value for each of the molecules that follow.
Answer in %, number only, no unit symbol.

*Q* Can you share its inhibition? I mean this molecule: O=C(c1ccc2n[nH]nc2c1)N1CCN(c2ccc(C(F)(F)F)cn2)CC1
*A* 32

*Q* Check O=C(C1CCC(Cn2c(=S)[nH]c3ccccc3c2=O)CC1)N1CCN(c2ccccc2)CC1 (stereo not given) too.
*A* 13

*Q* Check O=C(Nc1ccc2oc(-c3cccnc3)nc2c1)c1ccc2c(c1)OCCO2 too.
*A* 0

*Q* Check O=[N+]([O-])c1cccc(/C=N/N2CCN(Cc3ccc(Cl)cc3)CC2)c1 too.
*A* 0

*Q* Check COc1cc([C@H]2Oc3cc([C@H]4Oc5cc(O)cc(O)c5C(=O)[C@@H]4O)ccc3O[C@@H]2CO)ccc1O too.
*A* 28

###

# System: rhLYPLA2
# EXPERIMENTAL_PROTOCOL: LYPLA1 and LYPLA2 inhibitors, biochemical, gel-based ABPP, fluorescence, recombinant and endogenous enzyme (AID 493105)
# SETUP_CONDITIONS: fluorescent probe labeling, membrane fraction, at 20 µM, active compounds read high
Field: inhibition. Provide a value for each of the compounds that follow.
Answer in %, number only, no unit symbol.

*Q* Can you share its inhibition? I mean this compound: CCC(=O)N1CCN(c2ccc(NC(=S)NC(=O)c3ccc(OC)c([N+](=O)[O-])c3)cc2)CC1
*A* 21

*Q* Check N#Cc1c(N)nc(SCc2ccncc2)c(C#N)c1-c1cccs1 too.
*A* 11

*Q* Check Nc1nc(NCc2ccco2)nc(N2CCN(Cc3ccccc3)CC2)c1[N+](=O)[O-] too.
*A* 5

*Q* Check NS(=O)(=O)c1ccc(CCNC(=O)c2cc([N+](=O)[O-])ccc2N2CCCCC2)cc1 too.
*A* 0

*Q* Check COc1ccccc1-c1csc(-n2ncc(C#N)c2N)n1 too.
*A* 4
